# measured.target: Growth hormone secretagogue receptor type 1 (Homo sapiens)
# protocol.text: Agonist activity at human GHS receptor expressed in H4 cells by FLIPR assay
# Format: functional, cell-based
measurement.label: Intrinsic activity

>  <structure.as.smiles>
CC(C)(N)C(=O)N[C@H](COCc1ccccc1)c1nnnn1CCCC(=O)NCCCc1ccccc1

>  <measurement.label>
Intrinsic activity

>  <value.reported>
> 85%

$$$$

Query: // fetch Intrinsic activity given entry CC(C)(N)C(=O)N[C@H](COCc1ccccc1)c1nnnn1CCCC(=O)NCCN1CCNC1=O
Reply: > 85%

Query: // fetch Intrinsic activity given entry CC(C)(N)C(=O)N[C@H](COCc1ccccc1)c1nnnn1CCOC(=O)NCCCCO
Reply: > 85%

Query: // fetch Intrinsic activity given entry CC(C)(N)C(=O)N[C@H](COCc1ccccc1)c1nnnn1CCCC(=O)N[C@H]1CC[C@H](O)CC1
Reply: > 85%

Query: // fetch Intrinsic activity given entry CC(C)(N)C(=O)N[C@H](COCc1ccccc1)c1nnnn1CCCC(=O)NCCC(=O)O
Reply: > 85%

----------
# measured.target: Growth hormone secretagogue receptor type 1 (Homo sapiens)
# protocol.text: Agonist activity at human GHS receptor expressed in H4 cells by FLIPR assay
pEC50 for assorted compounds
// pEC50: -log10(molar conc.)

Field: example entries. Status: answers known.
>  <structure.as.smiles>
CC(C)(N)C(=O)N[C@H](COCc1ccccc1)c1nnnn1CCCC(=O)NCCOCCO

>  <measured.target>
Growth hormone secretagogue receptor type 1 (Homo sapiens)

>  <pEC50>
9.15

$$$$
>  <structure.as.smiles>
CC(C)(N)C(=O)N[C@H](COCc1ccccc1)c1nnnn1CCCC(=O)NCCCc1ccccc1

>  <measured.target>
Growth hormone secretagogue receptor type 1 (Homo sapiens)

>  <pEC50>
7.48

$$$$
>  <structure.as.smiles>
CCOC(=O)CCNC(=O)CCCn1nnnc1[C@@H](COCc1ccccc1)NC(=O)C(C)(C)N

>  <measured.target>
Growth hormone secretagogue receptor type 1 (Homo sapiens)

>  <pEC50>
6.85

$$$$
>  <structure.as.smiles>
CC(C)(N)C(=O)N[C@H](COCc1ccccc1)c1nnnn1CCCC(=O)NCCS(C)(=O)=O

>  <measured.target>
Growth hormone secretagogue receptor type 1 (Homo sapiens)

>  <pEC50>
8.39

$$$$
>  <structure.as.smiles>
CC(C)(N)C(=O)N[C@H](COCc1ccccc1)c1nnnn1CCCC(=O)NCCS(N)(=O)=O

>  <measured.target>
Growth hormone secretagogue receptor type 1 (Homo sapiens)

>  <pEC50>
8.85

$$$$

Query: // fetch pEC50 given entry CC(C)(N)C(=O)N[C@H](COCc1ccccc1)c1nnnn1CCCC(=O)NCCc1cccc(O)c1
Reply: 9.70

Query: // fetch pEC50 given entry CC(C)(N)C(=O)N[C@H](COCc1ccccc1)c1nnnn1CCCC(=O)NCCO
Reply: 7.40

Query: // fetch pEC50 given entry CC(C)(N)C(=O)N[C@H](COCc1ccccc1)c1nnnn1CCCC(=O)Nc1ccccc1
Reply: 7.15

Query: // fetch pEC50 given entry CC(C)(N)C(=O)N[C@H](COCc1ccccc1)c1nnnn1CCCC(=O)NCC(F)(F)F
Reply: 7.59

----------
# measured.target: Growth hormone secretagogue receptor type 1 (Homo sapiens, UniProt Q92847)
# Sequence (Q92847 whole entry): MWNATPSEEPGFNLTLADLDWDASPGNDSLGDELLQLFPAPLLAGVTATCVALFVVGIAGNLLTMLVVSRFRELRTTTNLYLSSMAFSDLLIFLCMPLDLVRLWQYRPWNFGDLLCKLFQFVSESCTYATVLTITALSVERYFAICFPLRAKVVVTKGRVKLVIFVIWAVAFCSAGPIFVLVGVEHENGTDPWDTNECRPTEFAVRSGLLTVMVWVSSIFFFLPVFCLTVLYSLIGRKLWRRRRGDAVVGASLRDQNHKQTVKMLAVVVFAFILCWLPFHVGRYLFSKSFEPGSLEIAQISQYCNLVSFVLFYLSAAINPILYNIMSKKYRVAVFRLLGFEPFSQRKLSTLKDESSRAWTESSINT
# protocol.text: Agonist activity at human GHS receptor expressed in H4 cells by FLIPR assay
# Type: functional, cell-based
measurement.label: Intrinsic activity

Field: example entries. Status: answers known.
>  <structure.as.smiles>
CC(C)(N)C(=O)N[C@H](COCc1ccccc1)c1nnnn1CCCC(=O)NCCC(N)=O

>  <measured.target>
Growth hormone secretagogue receptor type 1 (Homo sapiens, UniProt Q92847)

>  <measurement.label>
Intrinsic activity

>  <value.reported>
> 85%

$$$$
>  <structure.as.smiles>
CC(C)(N)C(=O)N[C@H](COCc1ccccc1)c1nnnn1CCCC(=O)NCCO

>  <measured.target>
Growth hormone secretagogue receptor type 1 (Homo sapiens, UniProt Q92847)

>  <measurement.label>
Intrinsic activity

>  <value.reported>
> 85%

$$$$
>  <structure.as.smiles>
CC(C)(N)C(=O)N[C@H](COCc1ccccc1)c1nnnn1CCOc1cccc(C(=O)NCCCCO)c1

>  <measured.target>
Growth hormone secretagogue receptor type 1 (Homo sapiens, UniProt Q92847)

>  <measurement.label>
Intrinsic activity

>  <value.reported>
> 85%

$$$$
>  <structure.as.smiles>
CC(C)(N)C(=O)N[C@H](COCc1ccccc1)c1nnnn1CCCC(=O)NCCOCCO

>  <measured.target>
Growth hormone secretagogue receptor type 1 (Homo sapiens, UniProt Q92847)

>  <measurement.label>
Intrinsic activity

>  <value.reported>
> 85%

$$$$

Query: // fetch Intrinsic activity given entry CC(C)(N)C(=O)N[C@H](COCc1ccccc1)c1nnnn1CCCC(=O)NCCc1cccc(O)c1
Reply: > 85%

----------
# measured.target: Growth hormone secretagogue receptor type 1 (Homo sapiens)
# protocol.text: Agonist activity at human GHS receptor expressed in H4 cells by FLIPR assay
# Format: functional, cell-based
Intrinsic activity for assorted compounds

Field: example entries. Status: answers known.
>  <structure.as.smiles>
CC(C)(N)C(=O)N[C@H](COCc1ccccc1)c1nnnn1CCCC(=O)NCCc1ccccc1

>  <measurement.label>
Intrinsic activity

>  <value.reported>
> 85%

$$$$
>  <structure.as.smiles>
CN(CCc1cccc(O)c1)C(=O)CCCn1nnnc1[C@@H](COCc1ccccc1)NC(=O)C(C)(C)N

>  <measurement.label>
Intrinsic activity

>  <value.reported>
> 85%

$$$$
>  <structure.as.smiles>
CC(C)(N)C(=O)N[C@H](COCc1ccccc1)c1nnnn1CCCC(=O)NCC(F)(F)F

>  <measurement.label>
Intrinsic activity

>  <value.reported>
> 85%

$$$$

Query: // fetch Intrinsic activity given entry CC(C)(N)C(=O)N[C@H](COCc1ccccc1)c1nnnn1CCNC(=O)CCCCO
Reply: > 85%

Query: // fetch Intrinsic activity given entry CC(C)(N)C(=O)N[C@H](COCc1ccccc1)c1nnnn1CCOc1ccccc1C(=O)NCCCCO
Reply: > 85%

----------
# measured.target: Growth hormone secretagogue receptor type 1 (Homo sapiens)
# protocol.text: Agonist activity at human GHS receptor expressed in H4 cells by FLIPR assay
pEC50 for assorted compounds
// pEC50: -log10(molar conc.)

Field: example entries. Status: answers known.
>  <structure.as.smiles>
CC(C)(N)C(=O)N[C@H](COCc1ccccc1)c1nnnn1CCCC(=O)NCCC(N)=O

>  <measured.target>
Growth hormone secretagogue receptor type 1 (Homo sapiens)

>  <pEC50>
8.12

$$$$
>  <structure.as.smiles>
CC(C)(N)C(=O)N[C@H](COCc1ccccc1)c1nnnn1CCCC(=O)NCCCCCO

>  <measured.target>
Growth hormone secretagogue receptor type 1 (Homo sapiens)

>  <pEC50>
8.89

$$$$
>  <structure.as.smiles>
CC(C)(N)C(=O)N[C@H](COCc1ccccc1)c1nnnn1CCOc1cccc(C(=O)NCCCCO)c1

>  <measured.target>
Growth hormone secretagogue receptor type 1 (Homo sapiens)

>  <pEC50>
8.52

$$$$
>  <structure.as.smiles>
CC(C)(N)C(=O)N[C@H](COCc1ccccc1)c1nnnn1CCCC(=O)N[C@H]1CC[C@H](O)CC1

>  <measured.target>
Growth hormone secretagogue receptor type 1 (Homo sapiens)

>  <pEC50>
6.28

$$$$
>  <structure.as.smiles>
CN(CCc1cccc(S(=O)(=O)CCO)c1)C(=O)CCCn1nnnc1[C@@H](COCc1ccccc1)NC(=O)C(C)(C)N

>  <measured.target>
Growth hormone secretagogue receptor type 1 (Homo sapiens)

>  <pEC50>
8.54

$$$$

Query: // fetch pEC50 given entry CC(C)(N)C(=O)N[C@H](COCc1ccccc1)c1nnnn1CCCC(=O)NCCCO
Reply: 7.57

Query: // fetch pEC50 given entry CC(C)(N)C(=O)N[C@H](COCc1ccccc1)c1nnnn1CCCC(=O)NCCCCCCO
Reply: 9.22

Query: // fetch pEC50 given entry CN(CCc1cccc(O)c1)C(=O)CCCn1nnnc1[C@@H](COCc1ccccc1)NC(=O)C(C)(C)N
Reply: 8.51

Query: // fetch pEC50 given entry CC(C)(N)C(=O)N[C@H](COCc1ccccc1)c1nnnn1CCOc1ccccc1C(=O)NCCCCO
Reply: 9.05

----------
# measured.target: Growth hormone secretagogue receptor type 1 (Homo sapiens)
# protocol.text: Agonist activity at human GHS receptor expressed in H4 cells by FLIPR assay
# Type: functional, cell-based
Intrinsic activity for assorted compounds

>  <structure.as.smiles>
CC(C)(N)C(=O)N[C@H](COCc1ccccc1)c1nnnn1CCCC(=O)NCCS(C)(=O)=O

>  <Intrinsic activity>
> 85%

$$$$
>  <structure.as.smiles>
CC(C)(N)C(=O)N[C@H](COCc1ccccc1)c1nnnn1CCCC(=O)NCCCO

>  <Intrinsic activity>
> 85%

$$$$
>  <structure.as.smiles>
CN(CCc1cccc(S(=O)(=O)CCO)c1)C(=O)CCCn1nnnc1[C@@H](COCc1ccccc1)NC(=O)C(C)(C)N

>  <Intrinsic activity>
> 85%

$$$$

Query: // fetch Intrinsic activity given entry CC(C)(N)C(=O)N[C@H](COCc1ccccc1)c1nnnn1CCCC(=O)NCCc1cccc(S(=O)(=O)CCO)c1
Reply: > 85%
